# systemName: Human Full Length PARG (Homo sapiens (Human), UniProt Q86W56)
# Sequence (Q86W56 whole entry): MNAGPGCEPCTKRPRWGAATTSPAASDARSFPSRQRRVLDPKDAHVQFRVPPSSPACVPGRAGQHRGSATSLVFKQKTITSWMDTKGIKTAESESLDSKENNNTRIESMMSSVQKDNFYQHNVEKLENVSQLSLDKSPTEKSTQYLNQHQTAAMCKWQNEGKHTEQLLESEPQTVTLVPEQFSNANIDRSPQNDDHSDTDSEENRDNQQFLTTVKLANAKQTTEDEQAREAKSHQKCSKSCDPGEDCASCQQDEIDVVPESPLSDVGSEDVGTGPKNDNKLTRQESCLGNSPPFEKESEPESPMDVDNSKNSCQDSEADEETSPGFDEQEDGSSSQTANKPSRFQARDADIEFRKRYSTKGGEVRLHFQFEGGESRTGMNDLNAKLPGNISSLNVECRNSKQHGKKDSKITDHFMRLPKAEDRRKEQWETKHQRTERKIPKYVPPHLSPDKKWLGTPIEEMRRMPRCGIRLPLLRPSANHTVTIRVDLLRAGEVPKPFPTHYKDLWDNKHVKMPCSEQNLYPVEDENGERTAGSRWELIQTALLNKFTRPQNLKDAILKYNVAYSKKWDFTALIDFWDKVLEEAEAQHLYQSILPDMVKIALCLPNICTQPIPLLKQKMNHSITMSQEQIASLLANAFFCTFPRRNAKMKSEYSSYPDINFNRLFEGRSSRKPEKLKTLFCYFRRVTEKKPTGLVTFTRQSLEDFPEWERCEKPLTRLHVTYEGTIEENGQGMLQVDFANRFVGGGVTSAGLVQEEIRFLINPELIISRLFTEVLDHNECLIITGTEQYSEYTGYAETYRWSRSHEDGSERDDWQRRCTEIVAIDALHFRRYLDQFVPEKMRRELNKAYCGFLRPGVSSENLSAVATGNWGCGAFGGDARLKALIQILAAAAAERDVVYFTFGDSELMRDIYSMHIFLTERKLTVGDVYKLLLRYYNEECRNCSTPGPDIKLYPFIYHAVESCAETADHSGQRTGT
# testSummary: PARG enzyme assay (TR-FRET)
# Format: biochemical
# measurementSetup: read-out: PARG Biochem IC50
Labelling field: enter Satisfied if recorded IC50 is less than 200 nM. Enter Not satisfied if it equals or exceeds that cut-off.

* C#CCn1c(=O)n(Cc2cnc(C)s2)c(=O)c2cc(S(=O)(=O)NC3(C#N)CC3)ccc21 | Satisfied
* CC(=O)NCc1cc(S(=O)(=O)NC2(C)CC2)cc2c(=O)n(Cc3cnn(C)c3)c(=O)[nH]c12 | Not satisfied
* Cc1cc(Cn2c(=O)c(Cc3cnn(C)c3)cc3cc(S(=O)(=O)NC4(C)CC4)ccc32)n(C)n1 | Not satisfied
* Cc1cc(Cn2c(=O)c3cc(S(=O)(=O)NC4(CF)CC4)ccc3n(Cc3nnc(C)s3)c2=O)on1 | Satisfied
* Cn1cc(Cn2c(=O)c3cc(S(=O)(=O)NC4(CF)CC4)ccc3n(Cc3cccc(C#N)n3)c2=O)cn1 | Satisfied
* Cn1cc(Cn2c(=O)c3cc(S(=O)(=O)NC4(CF)CC4)ccc3n(Cc3cn(C)nn3)c2=O)cn1 | Satisfied
* CCn1c(=O)n(Cc2cnn(C)c2)c(=O)c2cc(S(=O)(=O)NC3(CF)CC3)ccc21 | Satisfied

###

# systemName: Human Full Length PARG (Homo sapiens (Human), UniProt Q86W56)
# testSummary: PARG enzyme assay (TR-FRET)
# Format: biochemical
# measurementSetup: read-out: PARG Biochem IC50 Geomean
pIC50: −log10 of the molar value.
measurementLabel: pIC50

- CCN(CC)c1ccc(C(=O)Cn2c(=O)c3cc(S(=O)(=O)NC4(C)CC4)ccc3n(C)c2=O)cc1: 5.17
- Cn1c(=O)n(Cc2ccno2)c(=O)c2cc(S(=O)(=O)NC3(C)CC3)ccc21: 5.93
- Cc1cc(Cn2nc(CC3CCC3)c3ccc(S(=O)(=O)NC4(C)CC4)cc3c2=O)on1: 6.17
- CN(C)CCCn1c(=O)n(Cc2cnn(C)c2)c(=O)c2cc(S(=O)(=O)NC3(C)CC3)ccc21: 6.63
- CC(C)n1c(=O)n(Cc2cnn(C)c2)c(=O)c2cc(S(=O)(=O)NC3(C)CC3)ccc21: 6.47
- Cn1nc(Cl)c2ccc(S(=O)(=O)NC3(C)CC3)cc2c1=O: 5.29
- Cn1c(=O)c(=O)n(Cc2ccccc2)c2ccc(S(=O)(=O)NC3(C)CC3)cc21: 5.55
- CNc1nc2ccc(S(=O)(=O)NC3(C)CC3)cc2n(C)c1=O: 5.26
- Cn1cc(-c2ccc(F)cc2)c2ccc(S(=O)(=O)NC3(C)CC3)cc2c1=O: 5.07
- COc1cccc(Cc2nn(Cc3cc(C)no3)c(=O)c3cc(S(=O)(=O)NC4(C)CC4)ccc23)c1: 6.06
- Cc1nc(C)c(Cn2c(=O)n(Cc3c(C)noc3C)c(=O)c3cc(S(=O)(=O)NC4(C)CC4)ccc32)s1: 7.48
- CC1(NS(=O)(=O)c2ccc3[nH]c(=O)n(C4CC4)c(=O)c3c2)CC1: 5.39
- Cc1cc(Cn2c(=O)c3cc(S(=O)(=O)NC4CC4)ccc3n(C)c2=O)on1: 5.42
- Cc1cc(Cn2c(=O)c3cc(S(=O)(=O)NC4(C)CC4)ccc3n(CC3CCCCN3C)c2=O)on1 (centres unmarked): 6.48
- Cc1cc(Cn2cc(CCCN(C)C)c3ccc(S(=O)(=O)NC4(C)CC4)cc3c2=O)on1: 5.97
- C#CCn1cc(Cn2c(=O)c3cc(S(=O)(=O)NC4(C)CC4)ccc3n(C)c2=O)cn1: 6.25
- Cn1c(=O)c2cc(S(=O)(=O)NC3(C)CC3)ccc2n(CC2CCOC2)c1=O (centres unmarked): 5.83
- CN1CCC(Cn2c(=O)n(Cc3cnn(C)c3)c(=O)c3cc(S(=O)(=O)NC4(C)CC4)ccc32)CC1: 6.84
- Cn1cc(Cn2c(=O)c3cc(S(=O)(=O)NC4(C)CC4)ccc3n(CCC3CC3)c2=O)cn1: 7.14
- Cc1cc(Cn2c(=O)c3cc(S(=O)(=O)NC4(C)CC4)ccc3n(Cc3noc(C)n3)c2=O)on1: 6.51
- Cn1cc(Cn2c(=O)c3cc(S(=O)(=O)NC4(C)CC4)ccc3n(CC3CCSCC3)c2=O)cn1: 7.23
- Cn1c(=O)c2cc(S(=O)(=O)NC3(C)CC3)ccc2n(Cc2cccnc2)c1=O: 5.88
- Cn1cc(Cn2c(=O)c3cc(S(=O)(=O)NC4(C)CC4)c(F)cc3n(Cc3ccc(F)cc3)c2=O)cn1: 6.99
- CNc1nn(C)c(=O)c2cc(S(=O)(=O)NC3(C)CC3)ccc12: 5.70
- Cc1cc(C)cc(Cn2c(=O)n(C)c(=O)c3cc(S(=O)(=O)NC4(C)CC4)ccc32)c1: 5.77
- COc1ccc(Cn2cc(Cn3c(=O)c4cc(S(=O)(=O)NC5(C)CC5)ccc4n(C)c3=O)cn2)cc1: 5.86
- Cn1cc(Cn2c(=O)[nH]c3cc(F)c(S(=O)(=O)NC4(C)CC4)cc3c2=O)cn1: 6.43
- CNCCCn1c(=O)n(Cc2cc(C)no2)c(=O)c2cc(S(=O)(=O)NC3(C)CC3)ccc21: 6.49
- Cc1ncc(Cn2c(=O)[nH]c3ccc(S(=O)(=O)NC4(C)CC4)cc3c2=O)s1: 6.56
- Cc1cc(Cn2c(=O)c3cc(S(=O)(=O)NC4(C)CC4)ccc3n(Cc3cnn(C)c3)c2=O)on1: 7.02
- Cc1cc(Cn2c(=O)c3cc(S(=O)(=O)NC4(C)CC4)ccc3n(C)c2=O)no1: 5.28
- Cc1cc(Cn2c(=O)c3cc(S(=O)(=O)NC4(C)CC4)ccc3n(CC3CCCCC3)c2=O)on1: 6.30
